assay: Drug level in rabbit lung at 0.5 to 2 mg/kg/day, iv for 8 days measured 30 mins after last dose; type: ADME, organism-based, Oryctolagus cuniculus; set-up: route intravenous; settings: read-out: Drug uptake
Starred links: 1 amine or outer side, 2 acyl side, 3 side chain; linkers in the order of their positions; H or OH if unused. Positions of bridges follow the written chain, without caps; N, C: chain ends. Non-standard residues stand in square brackets, D forms with d. Residues, ends and D or L forms follow the SMILES beside them. *: point of attachment. hTyr(3S-OH,4S-OH,3'-OSO3H) = N[C@H](C(=O)O)[C@H](O)[C@@H](O)c1ccc(O)c(OS(=O)(=O)O)c1; Orn(4R-OH,5R-OH) = O=C([C@H](C[C@@H](O)[C@@H](O)N[*:3])N[*:1])[*:2]; Pro(3S-OH,4S-Me) = C[C@H]1CN[C@H](C(=O)O)[C@H]1O; X1 = CCCCCOc1ccc(-c2cc(-c3ccc(C(=O)*)cc3)no2)cc1; Gln(3R-OH) = NC(=O)C[C@@H](O)[C@H](N)C(=O)O; Hyp = O=C(O)[C@@H]1C[C@@H](O)CN1
Endpoint Label: concentration at 0.5 h (ng/g)
Only the number, expressed in ng/g, is required.

Data request: I am curious: what concentration at 0.5 h value has been reported for CCCCCOc1ccc(-c2cc(-c3ccc(C(=O)N[C@H]4C[C@@H](O)[C@@H](O)NC(=O)[C@@H]5[C@@H](O)[C@@H](C)CN5C(=O)[C@H]([C@H](O)CC(N)=O)NC(=O)[C@H]([C@H](O)[C@@H](O)c5ccc(O)c(OS(=O)(=O)O)c5)NC(=O)[C@@H]5C[C@@H](O)CN5C(=O)[C@H]([C@@H](C)O)NC4=O)cc3)no2)cc1 [MICAFUNGIN] (X1-[Orn(4R-OH,5R-OH)]T[Hyp][hTyr(3S-OH,4S-OH,3'-OSO3H)][Gln(3R-OH)][Pro(3S-OH,4S-Me)]; lactam 1-C) ?
Data returned: 2260
